Sourced from patent US20250188058A1

- protocol_description: Solubility estimation by aliquot addition in solvents
- Format: physicochemical
- particulars: organic solvent or mixture, thermodynamic from solid; Tetrahydrofuran, 20° C.; read-out: Solubility Range
assay_metric: solubility

1) CCCn1cc(OCC(F)(F)F)c(C(=O)Nc2ccc(Oc3ccnc4cc(OC)c(OC)cc34)cn2)n1.Cl [Q702 HCl salt]	< 20 mg/mL

###

- protocol_description: Solubility estimation by aliquot addition in solvents
- Type: physicochemical
- particulars: organic solvent or mixture, thermodynamic from solid; Acetone, 20° C.; read-out: Solubility Range
assay_metric: solubility

1. CCCn1cc(OCC(F)(F)F)c(C(=O)Nc2ccc(Oc3ccnc4cc(OC)c(OC)cc34)cn2)n1.Cl [Q702 HCl salt]	< 20 mg/mL
